# assay.explanation: Bioassay: distribution of I-123-labeled compounds in organs of rats after tail vein injection (percent dose/gram, brain/blood ratio)
# Assay type: in vivo, Female Sprague-Dawley rats
# conditions.used: 5 minutes post-injection

line.notation: CC(C)(C)NCc1ccccc1[123I]
Brain/Blood Ratio 5 min.: 8.85
--
line.notation: [123I]c1ccccc1CCNCCc1ccccc1
Brain/Blood Ratio 5 min.: 4.77
--
line.notation: NCCc1ccccc1[123I]
Brain/Blood Ratio 5 min.: 0.49
--
line.notation: CC(C)NCCc1ccccc1[123I]
Brain/Blood Ratio 5 min.: 8.58
--
line.notation: [123I]c1ccccc1CNCCc1ccccc1
Brain/Blood Ratio 5 min.: 2.52
--
line.notation: Cc1cccc(C)c1NC(=O)CNCCc1ccccc1[123I]
Brain/Blood Ratio 5 min.: 1.33

----------
# assay.explanation: Bioassay: distribution of I-123-labeled compounds in organs of rats after tail vein injection (percent dose/gram, brain/blood ratio)
# Format: in vivo, Female Sprague-Dawley rats
# conditions.used: rat, iv, blood, 5 minutes post-injection, 0.05 to 1.0 mCi, two rats, read-out: Percent Dose/Gram Blood 5 min.

molecule: Nc1ccccc1[123I]
tissue uptake at 5 min [%ID/g]: 1.7

molecule: C[C@@H](N)Cc1ccc([123I])cc1
tissue uptake at 5 min [%ID/g]: 0.15

molecule: CC1CCC(C)N1Cc1ccccc1[123I] (centres unmarked)
tissue uptake at 5 min [%ID/g]: 0.37

molecule: [123I]c1ccccc1CCNCCc1ccccc1
tissue uptake at 5 min [%ID/g]: 0.16

molecule: CC(C)(C)NCc1ccccc1[123I]
tissue uptake at 5 min [%ID/g]: 0.17

----------
In this section we review reported tissue uptake at 5 min values for a set of molecules.
# assay.explanation: Bioassay: distribution of I-123-labeled compounds in organs of rats after tail vein injection (percent dose/gram, brain/blood ratio)
# Assay type: in vivo, Female Sprague-Dawley rats
# conditions.used: rat, iv, heart, 5 minutes post-injection, 0.05 to 1.0 mCi, two rats, read-out: Percent Dose/Gram Heart 5 min.
# Experimental: Female Sprague-Dawley rats weighing approximately 150 g were anesthetized with sodium pentobarbital and were injected in a tail vein with from 0.05 to 1.0 mCi (in a volume of 0.2 to 0.5 ml) of the I-123-labeled compound. […] Two animals each were sacrificed at 5 minutes and 60 minutes post-injection, the tails discarded and the amount of activity in various organs determined. […] The ratio of brain-to-blood activity was calculated as a percent of administered dose per gram.

molecule: CC(Cc1ccccc1)NCc1ccccc1[123I] (racemic)
unit.tag: %ID/g
tissue uptake at 5 min: 0.72

molecule: CC1CCC(C)N1Cc1ccccc1[123I] (centres unmarked)
unit.tag: %ID/g
tissue uptake at 5 min: 1.03

molecule: [123I]c1ccccc1CCN(CCc1ccccc1)CCc1ccccc1
unit.tag: %ID/g
tissue uptake at 5 min: 1.18

molecule: CC(Cc1ccccc1)Nc1ccccc1[123I] (racemic)
unit.tag: %ID/g
tissue uptake at 5 min: 1.64

molecule: [123I]c1ccccc1CCN1CCCCC1
unit.tag: %ID/g
tissue uptake at 5 min: 1.68

----------
In this section we review reported tissue uptake at 1 h values for a set of compounds.
# assay.explanation: Bioassay: distribution of I-123-labeled compounds in organs of rats after tail vein injection (percent dose/gram, brain/blood ratio)
# Format: in vivo, Female Sprague-Dawley rats
# conditions.used: rat, iv, brain, 60 minutes post-injection, 0.05 to 1.0 mCi, two rats, read-out: Percent Dose/Gram Brain 60 min.

compound: CC(Cc1ccccc1)NCCc1ccccc1[123I] (racemic)
tissue uptake at 1 h [%ID/g]: 0.83
//
compound: [123I]c1ccccc1CCNCCc1ccccc1
tissue uptake at 1 h [%ID/g]: 0.48
//
compound: CC(C)NCc1ccccc1[123I]
tissue uptake at 1 h [%ID/g]: 0.64
//
compound: CCNCc1ccccc1[123I]
tissue uptake at 1 h [%ID/g]: 0.44
//
compound: Nc1ccc([123I])cc1
tissue uptake at 1 h [%ID/g]: 0.8
//
compound: CC(C)Nc1ccccc1[123I]
tissue uptake at 1 h [%ID/g]: 0.13
//
compound: [123I]c1ccccc1CCN(CCc1ccccc1)CCc1ccccc1
tissue uptake at 1 h [%ID/g]: 0.11
//
compound: C[C@H](N)Cc1ccc([123I])cc1
tissue uptake at 1 h [%ID/g]: 1.88
